Cited source for all entries: patent US5486532A

This listing pairs compounds with measured EC50.
# System: saphena veins
# assay procedure: Contraction of isolated dog saphena veins
# condition parameters: Canis lupus familiaris; dog saphena vein rings, cumulative doses
Could you give me the number in nM? Just the number is fine.

Answered cases to consult:
query: Which measured EC50 value corresponds to COc1cccc2c1CC1(CC2)CNC=N1 (stereo not drawn) ?
result: 400

query: Okay, and Clc1cccc2c1CC1(CC2)CNC=N1 (stereo not drawn) [Example 1] ?
result: 200

Continuing:
query: Consider the compound shown here: Clc1cccc2c1CC1(CC2)CNC=N1 (single isomer, unassigned) [Example 6] What is its recorded EC50?
result: 7000

---

# Tested on: loss of the righting reflex in rats
# assay procedure: Test of loss of the righting reflex in rats, induction (agonistic effect)
# Type: in vivo, male Wistar rats
# condition parameters: Rattus norvegicus, sc, 0.5 h; s.c., 30 minutes after injection, score of 1 or more; read-out: Induction of the loss of righting reflex ED50
In this section we review reported ED50 values for a set of compounds.
Your answer should be a plain number; it is taken to be in mg/kg.

query: Look up ED50: NC1=NC2(CCc3cccc(Cl)c3C2)CO1 (stereo not shown) [Example 9]
result: 0.17

query: Another compound: NC1=NC2(CCc3cccc(Cl)c3C2)CO1 (single isomer, unassigned) [Example 13]
result: 0.15

--- query ---
query: So what's the measured ED50 for this one? Cc1ccc2c(c1C)CC1(CC2)COC(N)=N1 (stereo not shown) [Example 11]
result: 1.14
